Experiment: Serum stability in mouse serum at 37° C.
Assay type: in vitro ADME
Conditions: mouse serum, 37° C., mono-exponential fit
VALUE_KIND: Serum τ1/2 (h) mouse
Please respond with the number in h and leave the unit unwritten.

C124A/M253L: RLuc mutant C124A/M253L (protein) MASKVYDPEQRKRMITGPQWWARCKQMNVLDSFINYYDSEKHAENAVIFLHGNAASSYLWRHVVPHIEPVARCIIPDLIGMGKSGKSGNGSYRLLDHYKYLTAWFELLNLPKKIIFVGHDWGAALAFHYSYEHQDKIKAIVHAESVVDVIESWDEWPDIEEDIALIKSEEGEKMVLENNFFVETMLPSKIMRKLEPEEFAAYLEPFKEKGEVRRPTLSWPREIPLVKGGKPDVVQIVRNYNAYLRASDDLPKLFIESDPGFFSNAIVEGAKKFPNTEFVKVKGLHFSQEDAPDEMGKYIKSFVERVLKNEQ	15
C124A/S287L: RLuc mutant C124A/S287L (protein) MASKVYDPEQRKRMITGPQWWARCKQMNVLDSFINYYDSEKHAENAVIFLHGNAASSYLWRHVVPHIEPVARCIIPDLIGMGKSGKSGNGSYRLLDHYKYLTAWFELLNLPKKIIFVGHDWGAALAFHYSYEHQDKIKAIVHAESVVDVIESWDEWPDIEEDIALIKSEEGEKMVLENNFFVETMLPSKIMRKLEPEEFAAYLEPFKEKGEVRRPTLSWPREIPLVKGGKPDVVQIVRNYNAYLRASDDLPKMFIESDPGFFSNAIVEGAKKFPNTEFVKVKGLHFLQEDAPDEMGKYIKSFVERVLKNEQ	28
A55T/C124A: RLuc mutant A55T/C124A (protein) MASKVYDPEQRKRMITGPQWWARCKQMNVLDSFINYYDSEKHAENAVIFLHGNATSSYLWRHVVPHIEPVARCIIPDLIGMGKSGKSGNGSYRLLDHYKYLTAWFELLNLPKKIIFVGHDWGAALAFHYSYEHQDKIKAIVHAESVVDVIESWDEWPDIEEDIALIKSEEGEKMVLENNFFVETMLPSKIMRKLEPEEFAAYLEPFKEKGEVRRPTLSWPREIPLVKGGKPDVVQIVRNYNAYLRASDDLPKMFIESDPGFFSNAIVEGAKKFPNTEFVKVKGLHFSQEDAPDEMGKYIKSFVERVLKNEQ	30
C124A/K300A: RLuc mutant C124A/K300A (protein) MASKVYDPEQRKRMITGPQWWARCKQMNVLDSFINYYDSEKHAENAVIFLHGNAASSYLWRHVVPHIEPVARCIIPDLIGMGKSGKSGNGSYRLLDHYKYLTAWFELLNLPKKIIFVGHDWGAALAFHYSYEHQDKIKAIVHAESVVDVIESWDEWPDIEEDIALIKSEEGEKMVLENNFFVETMLPSKIMRKLEPEEFAAYLEPFKEKGEVRRPTLSWPREIPLVKGGKPDVVQIVRNYNAYLRASDDLPKMFIESDPGFFSNAIVEGAKKFPNTEFVKVKGLHFSQEDAPDEMGKYIASFVERVLKNEQ	3.5
A54P/A55T/C124A: RLuc mutant A54P/A55T/C124A (protein) MASKVYDPEQRKRMITGPQWWARCKQMNVLDSFINYYDSEKHAENAVIFLHGNPTSSYLWRHVVPHIEPVARCIIPDLIGMGKSGKSGNGSYRLLDHYKYLTAWFELLNLPKKIIFVGHDWGAALAFHYSYEHQDKIKAIVHAESVVDVIESWDEWPDIEEDIALIKSEEGEKMVLENNFFVETMLPSKIMRKLEPEEFAAYLEPFKEKGEVRRPTLSWPREIPLVKGGKPDVVQIVRNYNAYLRASDDLPKMFIESDPGFFSNAIVEGAKKFPNTEFVKVKGLHFSQEDAPDEMGKYIKSFVERVLKNEQ	119

Consider the molecule F116L/C124A: RLuc mutant F116L/C124A (protein) MASKVYDPEQRKRMITGPQWWARCKQMNVLDSFINYYDSEKHAENAVIFLHGNAASSYLWRHVVPHIEPVARCIIPDLIGMGKSGKSGNGSYRLLDHYKYLTAWFELLNLPKKIILVGHDWGAALAFHYSYEHQDKIKAIVHAESVVDVIESWDEWPDIEEDIALIKSEEGEKMVLENNFFVETMLPSKIMRKLEPEEFAAYLEPFKEKGEVRRPTLSWPREIPLVKGGKPDVVQIVRNYNAYLRASDDLPKMFIESDPGFFSNAIVEGAKKFPNTEFVKVKGLHFSQEDAPDEMGKYIKSFVERVLKNEQ . State its measured Serum τ1/2 (h) mouse.
11

Name the recorded Serum τ1/2 (h) mouse of the molecule listed here: C124A/F180A: RLuc mutant C124A/F180A (protein) MASKVYDPEQRKRMITGPQWWARCKQMNVLDSFINYYDSEKHAENAVIFLHGNAASSYLWRHVVPHIEPVARCIIPDLIGMGKSGKSGNGSYRLLDHYKYLTAWFELLNLPKKIIFVGHDWGAALAFHYSYEHQDKIKAIVHAESVVDVIESWDEWPDIEEDIALIKSEEGEKMVLENNAFVETMLPSKIMRKLEPEEFAAYLEPFKEKGEVRRPTLSWPREIPLVKGGKPDVVQIVRNYNAYLRASDDLPKMFIESDPGFFSNAIVEGAKKFPNTEFVKVKGLHFSQEDAPDEMGKYIKSFVERVLKNEQ
1.6
